- EXPERIMENT DESCRIPTION: Kinetic solubility of compound in PBS at pH 7.4 incubated for 24 hrs by chemiluminscent nitrogen detection method
- Format: physicochemical
- CONDITION NOTES: buffer, pH 7.4, 24 h
PROPERTY: Kinetic_solubility (µM)

CHEM SMILES | UNIT TEXT | MEASURED NUMBER
Cc1nn(CC(F)(F)F)cc1Nc1ncc(Br)c(NCc2ccc(S(N)(=O)=O)cc2)n1 | µM | 176.9
NS(=O)(=O)c1ccc(CNc2nc(Nc3cccc(CN4CCOCC4)c3)ncc2C2CC2)cc1 | µM | 118.7
Cc1nn(CC(F)(F)F)cc1Nc1ncc(C2CC2)c(NCCc2c[nH]cn2)n1 | µM | 171
c1cc(CN2CCOCC2)cc(Nc2ncc(C3CC3)c(NCCc3c[nH]cn3)n2)c1 | µM | 173.6
Cc1nn(CC(F)(F)F)cc1Nc1ncc(C2CC2)c(NCc2ccc(S(N)(=O)=O)cc2)n1 | µM | 33.2
Cc1nn(CC(F)(F)F)cc1Nc1ncc(Br)c(NCCc2cnc[nH]2)n1 | µM | 195.2
O=C(Nc1cccc(Nc2ncc(Br)c(NCCc3c[nH]cn3)n2)c1)N1CCCC1 | µM | 173.1
NS(=O)(=O)c1ccc(CNc2nc(Nc3cccc(NC(=O)N4CCCC4)c3)ncc2Br)cc1 | µM | 20
O=C(NCCCNc1nc(Nc2cccc(NC(=O)N3CCCC3)c2)ncc1C1CC1)C1CCC1 | µM | 164.4
